# System: SK-MEL-28 melanoma
# protocol-details: NCI tumour cell line growth inhibition, 48 h
measurement-label: TGI (µM)
Report only the number, with the unit µM understood.

// below: answered molecules
O=C(c1cccs1)c1c(C(F)(F)F)n([O-])c2ccccc2[n+]1=O: 14.5
COC1(C(=O)N2Cc3nc(Cl)nc(N[C@H](C)c4cc(N)cc(C(F)(F)F)c4)c3C2)CCOCC1: 30.9
CC(=O)OC1=C2CC3(C)OC(=O)CC(C)(C)C3=CC=C2C=C(C(C)C)C1=O (stereo not drawn): 1.31
CN1CCN(Cc2ccc(C(=O)Nc3cncc(C#Cc4cnc(N)c5ccccc45)c3)cc2C(F)(F)F)CC1: 3.22
CC(CO)(CO)N=Cc1cc(I)cc(I)c1O: 38.7

Return TGI (reported value) for this molecule: N#CC1=C(N)OC2=C(CSc3ccccc32)C1c1ccc(Br)cc1 (stereo not drawn) 28

Return TGI (reported value) for this molecule: COC(=O)C1=C(C(=O)OC)C2OC1C1C2C2(C)C(C)=C(C)C1(C)S2=O (stereo not drawn) 33.8

###

# System: MDA-MB-435
# protocol-details: NCI tumour cell line growth inhibition, 48 h
Listed here: items and their measured TGI.
Report only the number, with the unit µM understood.

N#Cc1c(N)[nH]c(=S)c(C#N)c1-c1cccc(Cl)c1: 49.7
O=C(CSc1nc2ccc([N+](=O)[O-])cc2[nH]1)Nc1ccc(F)c(Cl)c1: 12.6
O=C1/C(=C/c2ccc(F)cc2)CCOc2ccc([N+](=O)[O-])cc21: 7.26
c1cc(-c2cnc(-c3ccc4c(c3)CCCO4)o2)ccn1: 28.3
CC1(C)N=C(N)N=C(N)N1c1ccc(CCCCc2ccc(S(=O)(=O)F)cc2)cc1: 17

Send back MDA-MB-435 TGI of Oc1ccccc1C(c1cc2c(cc1O)OCO2)N1CCOCC1 (stereo not given) only. 34.9

###

# Test system: DU-145 prostate
# protocol-details: NCI tumour cell line growth inhibition, 48 h
Listed here: items and their measured TGI.

N/C(CC(=O)Nc1cc(C(F)(F)F)ccc1Cl)=N\O: > 100 µM
CNC(=O)c1ccccc1CC1(O)c2ccccc2Oc2ccccc21: 56.5 µM

Kindly review the next compound as well.
Return TGI (reported value) for this compound: Nc1nc2ncc(SCc3ccc(C(=O)NC(CCC(=O)O)C(=O)O)cc3)cc2c(=O)[nH]1 (stereo not drawn) > 100 µM

###

# System: NCI-H522 lung
# protocol-details: NCI tumour cell line growth inhibition, 48 h
Listed here: items and their measured log10 TGI.
All values: base-10 log of TGI in µM.

Return log10 TGI (reported value) for this compound: `CC1(C)N=C(N)N=C(N)N1c1ccc(CCCCc2ccc(S(=O)(=O)F)cc2)cc1` 1.21

###

Listed here: items and their measured TGI.
# Tested on: ACHN renal
# protocol-details: NCI tumour cell line growth inhibition, 48 h

// below: answered compounds
CNC(=O)c1ccccc1CC1(O)c2ccccc2Oc2ccccc21: > 100 µM
CCCCCCCCCCCCC(=O)OC(c1cnco1)c1nc(C(O)CC(O)C(O)C(C)O)co1 (stereo unspecified): > 71.9 µM
O=C(/C(=C(/Br)I)c1ccccc1)c1ccccc1: 71.2 µM

Return TGI (reported value) for this compound: `FC(F)(F)c1nc(-c2ccccc2Cl)[nH]c1C(F)(F)F` 2.65 µM

Return TGI (reported value) for this compound: Cc1ccc2c(c1C)CC1(Cc3c(ccc4c3CCC4)C1=O)C2=O (stereo unspecified) > 100 µM

Return TGI (reported value) for this compound: `C[C@@H]1CC[C@@H]2[C@@H]1[C@H](OC(=O)/C=C/c1ccccc1)[C@]1(c3ccccc3)C[C@@H](OC(=O)CO)[C@@]2(C)O1` 0.597 µM

Return TGI (reported value) for this compound: OCC1CCCC(n2cnc3c(=S)nc[nH]c32)O1 (stereo unspecified) > 100 µM

Return TGI (reported value) for this compound: `COC(=O)C(C#N)=C1c2ccccc2Oc2ccccc21` > 100 µM

Return TGI (reported value) for this compound: `N#Cc1c(NC(=S)NC(=O)c2ccccc2)nc2c(c1-c1ccccc1)CCC2` > 100 µM

###

# Tested on: HCC-2998 colon
# protocol-details: NCI tumour cell line growth inhibition, 48 h
measurement-label: TGI

// below: answered molecules
CCOC(=O)C(OCC1CC=CCC1)Sc1ccccc1 (stereo unspecified): > 100 µM
CCSc1nnc(CSc2nc(-c3ccccc3)c(-c3ccccc3)[nH]2)n1-c1ccccc1: 36.5 µM
C#CCNC(=O)NC(CCCNC(=O)OCc1ccccc1)C(=O)OCc1ccccc1 (stereo unspecified): > 100 µM

Return TGI (reported value) for this molecule: CCC(=O)C(c1ccccc1)c1ccccn1 (stereo unspecified) > 100 µM

Return TGI (reported value) for this molecule: `Cc1sc2nc3n(c(=O)c2c1C)N=CN(c1ccccc1)C3` > 100 µM

Return TGI (reported value) for this molecule: `O=C(C#Cc1c[nH]c(=O)[nH]c1=O)c1ccccc1Cl` 30.8 µM

###

# Tested on: HT29 colon
# protocol-details: NCI tumour cell line growth inhibition, 48 h
Listed here: items and their measured TGI.
Report only the number, with the unit µM understood.

// below: answered compounds
CC(C)C(Sc1nc(-c2ccccc2)c(-c2ccccc2)[nH]1)C(=O)NNC(=S)Nc1ccccc1 (centres undefined): 36.8
C=C1C(=O)O[C@H]2[C@H]1CC/C(CNC(=O)c1c[nH]c3ccc(F)cc13)=C\CC[C@@]1(C)O[C@@H]21: 2.91
CC(CO)(CO)N=Cc1cc(I)cc(I)c1O: 44.6

Send back HT29 colon TGI of `CCN1CCN(c2nc(NCCCNc3ccnc4cc(Cl)ccc34)c3ccccc3n2)CC1` only. 7.22

###

# Tested on: MCF7 breast
# protocol-details: NCI tumour cell line growth inhibition, 48 h
measurement-label: TGI (µM)
Report only the number, with the unit µM understood.

// below: answered compounds
O=[Se]([O-])c1ccccc1.O=[Se]([O-])c1ccccc1.[OH3+].[OH3+].[Pt+2]: 37.2
COc1ccc(Nc2c(C#N)c3n(c4ccccc24)c2ccccc2[n+]3C)cc1OC: 21.7
O=C1/C(=C/c2ccc(F)cc2)CCOc2ccc([N+](=O)[O-])cc21: 9.29
O=C(/C=C/c1ccc(Cl)cc1)c1ccc(Cl)cc1Cl: 23
CC(C)(C)OC(=O)n1cc(CNC(=S)Nc2ccccc2)c2ccccc21: 48
COc1cc(/C=C\[N+](=O)[O-])ccc1O: 4.28
N#CC(=C1SCS1)[N+](=O)[O-]: 17.8

Kindly review the next compound as well.
Return TGI (reported value) for this compound: Oc1ccccc1C(c1cc2c(cc1O)OCO2)N1CCOCC1 (stereo unspecified) 38.3

###

# Test system: MALME-3M melanoma
# protocol-details: NCI tumour cell line growth inhibition, 48 h
Listed here: items and their measured GI50.

Return GI50 (reported value) for this compound: `O=C(CSc1nc2ccc([N+](=O)[O-])cc2[nH]1)Nc1ccc(F)c(Cl)c1` 1.75 µM

Return GI50 (reported value) for this compound: `COc1ccc(NC(=O)Nc2n[nH]c3ccccc23)cc1` > 100 µM

Return GI50 (reported value) for this compound: `C1COCCN1.C1COCCN1.N.N.[Cl-].[Pt+2]` > 100 µM

Return GI50 (reported value) for this compound: `O=[Se]([O-])c1ccccc1.O=[Se]([O-])c1ccccc1.[OH3+].[OH3+].[Pt+2]` 16.5 µM

Return GI50 (reported value) for this compound: COc1c(C2CC(=O)Nc3c2cnn3Cc2ccco2)cc2c(c1OC)OCO2 (stereo not given) 0.441 µM

Return GI50 (reported value) for this compound: `CCn1c(-c2nonc2N)nc2c(C#CCN)ncc(OCCCN)c21` > 25 µM

Return GI50 (reported value) for this compound: `Nc1n[nH]c2ccc([C@@H]3Nc4ccc5[nH]ncc5c4[C@H]4[C@H]5CCC(C5)[C@H]43)cc12` 0.461 µM

Return GI50 (reported value) for this compound: `Cc1cc2nc3c4cc(Cl)ccc4n(CCN(C)C)c3nc2cc1C` 1.72 µM

Return GI50 (reported value) for this compound: `COc1ccc(/C=C/C=C(/C#N)C(N)=S)cc1` 26.9 µM

Return GI50 (reported value) for this compound: Cc1ccc2c(C(C[N+](=O)[O-])c3cccs3)c(-c3ccccc3)[nH]c2c1 (stereo not given) 1.55 µM

###

# Test system: HL-60(TB) leukemia
# protocol-details: NCI tumour cell line growth inhibition, 48 h
Give True when the value for TGI is at least 30 µM. Give False when it is less.

Determine whether this compound has TGI no lower than 30 µM: COc1ccc(-c2nn(-c3cccc(Cl)c3)cc2C2CC(c3ccccc3)=NN2C(C)=O)cc1 (stereo not given) True

###

# System: MDA-MB-231 breast
# protocol-details: NCI tumour cell line growth inhibition, 48 h
Give Satisfied when the value for TGI is at least 30 µM. Give Not satisfied when it is less.

Some entries whose results are on file:
C[C@]12OC[C@H](c3ccccc3)N1C(=O)C1[C@H]2CC12SCCS2 (some centres not stated): Satisfied
CC(=O)OCC1OC(N2C(=O)/C(=C\c3ccc(Cl)cc3)C(N)=Nc3ccccc32)C(OC(C)=O)C(OC(C)=O)C1OC(C)=O (configuration not stated): Satisfied
O=c1c2c3ccccc3[nH]c2c2cccc3c2n1CCC3: Satisfied

Determine whether this molecule has TGI no lower than 30 µM: CCN(CC)CCOC(c1cc(OC)ccc1OC)c1ccc2n1-c1ccccc1OC2 (configuration not stated) Not satisfied

Determine whether this molecule has TGI no lower than 30 µM: O=c1[nH]cnc2c(C3OC(CO)C(O)C3O)c[nH]c12 (configuration not stated) Satisfied

Determine whether this molecule has TGI no lower than 30 µM: `O=C(CCN1CCN(c2cnc3ccccc3n2)CC1)c1csc2ccccc12` Satisfied

Determine whether this molecule has TGI no lower than 30 µM: `Brc1cccc(-c2cc(-c3ccc4c(c3)OCCO4)[nH]n2)c1` Satisfied

Determine whether this molecule has TGI no lower than 30 µM: CCC(=O)C(c1ccccc1)c1ccccn1 (configuration not stated) Satisfied

Determine whether this molecule has TGI no lower than 30 µM: `Oc1ccccc1/C=N/Nc1ccc2ccccc2n1` Satisfied

Determine whether this molecule has TGI no lower than 30 µM: O=C1CC(c2ccco2)C2(C(=O)NC(=O)NC2=O)C(c2ccco2)C1 (configuration not stated) Satisfied

Determine whether this molecule has TGI no lower than 30 µM: CCOC(=O)c1cc(=C2\CCN(CC(C)CC)C2=S)/c(=C(/O)CC)[nH]1 (configuration not stated) Satisfied

Determine whether this molecule has TGI no lower than 30 µM: `Cc1c(S(=O)(=O)c2ccccc2)c(N)n(Cc2ccccc2)c1C` Satisfied

Determine whether this molecule has TGI no lower than 30 µM: `O=C(c1cccs1)c1c(C(F)(F)F)n([O-])c2ccccc2[n+]1=O` Not satisfied

Determine whether this molecule has TGI no lower than 30 µM: `COc1ccc(-c2cc(-c3cc(Cl)ccc3Cl)nc3[nH]c(-c4cc(F)c(Cl)cc4Cl)cc(=O)c23)cc1` Satisfied

Determine whether this molecule has TGI no lower than 30 µM: `Cc1sc2nc3n(c(=O)c2c1C)N=CN(c1ccccc1)C3` Satisfied

Determine whether this molecule has TGI no lower than 30 µM: `O=C(c1ccc2ccccc2c1)c1c(C(F)(F)F)n([O-])c2cc(Cl)c(Cl)cc2[n+]1=O` Not satisfied

Determine whether this molecule has TGI no lower than 30 µM: `COc1cc2c3c(cccc3c1)C(=O)N(CCN1CCCC1)C2=O` Not satisfied

Determine whether this molecule has TGI no lower than 30 µM: Oc1ccccc1C(c1cc2c(cc1O)OCO2)N1CCOCC1 (configuration not stated) Satisfied

Determine whether this molecule has TGI no lower than 30 µM: COc1ccc(-c2nn(-c3cccc(Cl)c3)cc2C2CC(c3ccccc3)=NN2C(C)=O)cc1 (configuration not stated) Satisfied

Determine whether this molecule has TGI no lower than 30 µM: `CNC(=O)c1ccccc1CC1(O)c2ccccc2Oc2ccccc21` Satisfied

Determine whether this molecule has TGI no lower than 30 µM: `N#CC(=C1SCS1)[N+](=O)[O-]` Not satisfied
